Item-by-item account of GI50
tested on: SK-OV-3; experiment: NCI tumour cell line growth inhibition, 48 h
Calls of active or inactive are those of the source. Cut-off read from the data, not from the text of the source: active = GI50 up to about 1.1 µM and inactive = higher.

Please review the following examples before continuing.
- compound: "CCCCCCCCCCCCCCCCCc1nc(Cl)nc(Cl)c1Cl"
  GI50: "> 100 µM (inactive)"
- compound: "CC(C)CCCC(C)[C@H]1CCC(C2C[C@@H](O)[C@@H]3CC(O)[C@@H](O)C[C@]3(CO)C2=O)[C@]1(C)CCO (some centres undefined)"
  GI50: "25.8 µM (inactive)"
- compound: "CC1(C)N=C(N)N=C(N)N1c1ccc(CCc2ccccc2)cc1"
  GI50: "48.4 µM (inactive)"
- compound: "Cc1cc(C)n(-c2nc3ccccc3c(=O)n2-c2ccccc2)n1"
  GI50: "> 100 µM (inactive)"
- compound: "CCCN(CCCCC(NC(C)=O)C(=O)NCc1ccccc1)C(=O)N(C)N=O (centres undefined)"
  GI50: "> 100 µM (inactive)"

What GI50 value was documented for this compound, `CCN(CC)CCCNc1ncc(C)c2c1c1ccc3c(O)cccc3c1n2C` ?
4.9 µM (inactive)

Look up GI50 for this compound: CCOC(=O)c1c(-c2ccc(OC)cc2)c(C#N)c(=S)n(C2OC(COC(C)=O)C(OC(C)=O)C(OC(C)=O)C2OC(C)=O)c1C (centres undefined)
> 100 µM (inactive)
